# Tested on: CDKL2;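 also: KINOMEscan scanMAX binding as percent activity remaining versus control; lower means stronger binding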
# test_settings: Compound Concentration (nM):1000
Overview of recorded Percent Control for various compounds
outcome_measure: Percent Control

                                    compound  result
 0  NS(=O)(=O)c1ccc(N/N=C2\C(=O)Nc3ccc(C(=O)NCCc4c[nH]cn4)cc32)cc1 [GW300660X]    100%
 1  COc1ccccc1-c1cc(/C=C2\C(=O)Nc3ncc(Br)cc32)cc(Br)c1O [GW442130X]     96%
 2  Cc1cc(O)cc(C)c1/C=C/c1cncc(C(N)=O)c1 [GW435821X]    100%
 3  NS(=O)(=O)c1ccc(N/N=C2\C(=O)Nc3ccc(C(=O)NCc4ccncc4)cc32)cc1 [GW300657X]     99%
 4  NS(=O)(=O)c1ccc(N/N=C2\C(=O)Nc3ccc(Cl)cc32)cc1 [GW280670X]     78%
 5  COc1ccc2cc(-c3c(-c4ccncc4)nc(-c4ccc(S(C)(=O)=O)cc4C)n3C)ccc2c1    100%
 6  CCn1c(-c2nonc2N)nc2c(C#CC(C)(C)O)nc(OCCNC)cc21.Cl    100%
 7  COc1cc(C=NNc2ncnc3c2cnn3-c2ccccc2)ccc1O [GW513184X]     22%
 8  CCS(=O)(=O)c1ccc(OC)c(Nc2ncc(-c3cccc(OC)c3)o2)c1 [GW580509X]     98%
 9  C[C@@H](Oc1cc(-n2cnc3ccc(OC4CCN(C)CC4)cc32)sc1C(N)=O)c1ccccc1Cl [GSK579289A]    100%
10  CN1CCN(C(=O)c2ccc(NC(=O)Nc3ccc(N(C)c4ccnc(Nc5ccc(CS(C)(=O)=O)cc5)n4)cc3)cc2)CC1.Cl [GW830263A]    1.7%
11  CC1=C(C(=O)Nc2ccc3[nH]ncc3c2)C(c2ccc(Cl)c(Cl)c2)CC(=O)N1 (centres unmarked) [GSK299115A]     80%
12  COc1ccc2c(-c3ccnc(Nc4cccc(OC(F)(F)F)c4)n3)cnn2n1 [GW810372X]     18%
13  O=C(Nc1n[nH]c2nc(-c3ccc(O)cc3)c(Br)cc12)C1CC1     60%
